Test system: H4 cells, PrP 5'UTR luciferase reporter translation
Experiment: inhibitors of PrP 5'UTR-driven reporter translation, dose response, luminescence (AID 1994)
Records with an inconclusive call do not appear. Active and inactive are the calls of the source. How the calls were made is not given here.
Outcome codes: t = active, f = inactive

INSERT INTO results (molecule, classification) VALUES
  ('C=C(C=O)CC1CC(O)[C@]2(C)OC3CC4OC5C[C@]6(C)O[C@]7(C)CCC8OC9C[C@]%10(C)OC%11C(C)=CC(=O)OC%11CC%10OC9C[C@@H](C)C8OC7CC6O[C@]5(C)CC5OC5C4OC3CC2O1 (some centres not stated)', 't'),
  ('C#CCOCCOCCOCCNc1nc(N2CCN(C(=O)CCCCCCCCCCNC(=O)[C@H](CO)n3cc(CCCSC)nn3)CC2)nc(N2CCN(C(=O)CCCCCCCCCCNC(=O)[C@H](CCCCN)n3cc(C[C@@H](C)CC)nn3)CC2)n1', 'f');
